System: human heteromeric α1-β GlyRs
Test: Whole-cell patch-clamp of glycine induced currents, modulators in the intracellular buffer, HEK293 cells expressing GlyR α1-β
Format: cell-based
Settings: absence of modulators, n = 8
measuredAttribute: EC50 (µM)
Numbers only, in µM.

Input line: May I ask what EC50 has been recorded for NCC(=O)O ?
Output line: 45.4

----------
System: human heteromeric α1-β GlyRs
Test: Whole-cell patch-clamp of glycine induced currents, modulators in the intracellular buffer, HEK293 cells expressing GlyR α1-β
Type: cell-based
Conditions: 0.5 μM modulator in intracellular buffer, mean ± SEM
measuredAttribute: Imax (nA)
Give bare numbers, in nA.

[
  {
    "compound": "O=S(=O)(NCCNC/C=C/c1ccc(Br)cc1)c1cccc2cnccc12 [H-89]",
    "measuredAttribute": "Imax",
    "resultNumber": 1.37
  }
]

Batch lookup, Imax per entry.
1. CCCCCCCCCCCCCC(=O)O[C@@H]1[C@@H](C)[C@@]2(O)[C@@H](C=C(CO)C[C@]3(O)C(=O)C(C)=C[C@@H]23)[C@@H]2C(C)(C)[C@]12OC(C)=O [PMA, phorbol-12-myristate-13-acetate]
2. O=C1NCc2c1c1c3ccccc3[nH]c1c1[nH]c3ccccc3c21 [Staurosporine aglycon]
3. C=C[C@@]1(C)CC(=O)[C@]2(O)[C@@]3(C)[C@@H](O)CCC(C)(C)[C@@H]3[C@H](O)[C@H](OC(C)=O)[C@@]2(C)O1 [Forskolin]

Output line:
1: 1.26; 2: 1.11; 3: 0.99
